test system: guinea pig ileum; experiment: Assay of opioid activity by guinea pig ileum assay (electrically evoked contraction of longitudinal muscle strip); details: Cavia porcellus, inhibition of electrically evoked contraction, absence of antagonist
As shown below, each of these molecules has a reported log10(IC50) value.
quantity_measured: log10(IC50) (log10 of the value in nM)

COc1cccc(/C=C/C(=O)N(C)[C@@H]2CC[C@@]3(O)[C@H]4Cc5ccc(O)c6c5[C@@]3(CC[N+]4([O-])CC3CC3)[C@H]2O6)c1 (stereo partly drawn) :: 0.61
CN(C(=O)C#Cc1ccc(C(F)(F)F)cc1)[C@@H]1CC[C@@]2(O)[C@H]3Cc4ccc(O)c5c4[C@@]2(CC[N+]3([O-])CC2CC2)[C@H]1O5 (stereo partly drawn) :: 0.19
Cc1cccc(C#CC(=O)N(C)[C@@H]2CC[C@@]3(O)[C@H]4Cc5ccc(O)c6c5[C@@]3(CC[N+]4([O-])CC3CC3)[C@H]2O6)c1 (stereo partly drawn) :: 1.05
CN(C(=O)/C=C/c1ccoc1)[C@@H]1CC[C@@]2(O)[C@H]3Cc4ccc(O)c5c4[C@@]2(CC[N+]3(C)CC2CC2)[C@H]1O5.[I-] (stereo partly drawn) :: 0.29
COc1cccc(/C=C/C(=O)N(C)[C@@H]2CC[C@@]3(O)[C@H]4Cc5ccc(O)c6c5[C@@]3(CC[N+]4(C)CC3CC3)[C@H]2O6)c1.[I-] (stereo partly drawn) :: 0.83
CN(C(=O)/C=C/c1ccoc1)[C@@H]1CC[C@@]2(O)[C@H]3Cc4ccc(O)c5c4[C@@]2(CC[N+]3([O-])CC2CC2)[C@H]1O5 (stereo partly drawn) :: 0.03
